# Measurement Target: T1, recombinant human TIGIT (human, UniProt Q495A1 22-141, limits assumed)
# T1 construct: recombinant human TIGIT used in Carterra SPR; also called hTIGIT
# T1 sequence (looked up): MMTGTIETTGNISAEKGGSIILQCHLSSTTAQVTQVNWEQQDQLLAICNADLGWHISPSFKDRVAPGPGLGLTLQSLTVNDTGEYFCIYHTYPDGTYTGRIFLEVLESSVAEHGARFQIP
# Assay Remarks: SPR Carterra, average
Result Type: kon (M⁻¹ s⁻¹)
Numbers only, in M⁻¹ s⁻¹.

Example entries begin here.
TIGIT-SC43 (Fc fusion, VHH-Fc fusion in assay) VHH: EVQLVESGGGLVQPGGSLRLSCAASGFTFADYAMGWFRQAPGKEREMVAAIGWNSGTTEYADSVKGRFTISADNSKNTAYLQMNSLKPEDTAVYYCARDTNGWFFDFWGQGTLVTVSS	112000
TIGIT-SC178 (Fc fusion, VHH-Fc fusion in assay) VHH: EVQLVESGGGLVQPGGSLRLSCAASGFTLSPSWMGWFRQAPGKEREWVASVLRGGYTWYADSVKGRFTISADNSKNTAYLQMNSLKPEDTAVYYCASEVASGETDYWGQGTLVTVSS	262000
TIGIT-SC32 (Fc fusion, VHH-Fc fusion in assay) VHH: EVQLVESGGGLVQPGGSLRLSCAASGFAFGDSWMGWFRQAPGKERELVAAIDWSGGSALYADSVKGRFTISADNSKNTALQMNSLKPEDTAVYYCAKVHSDFRAGWDVWGQGTLVTVSS	147000

Next:
Param item = TIGIT-SC113 (Fc fusion, VHH-Fc fusion in assay) VHH: EVQLVESGGGLVQPGGSLRLSCAASGFTLNDYAMGWFRQAPGKERELVAWIARYDGSTLYADSVKGRFTISADNSKNTAYLQMNSLKPEDTAVYYCTWGDGYNLGAFDIWGQGTLVTVSS ; retrieve measured kon. 257000
